Recorded values, source paper PMC9407945.

assayed-system: SARS-CoV-2 spike ectodomain (S-ecto), Wuhan-hu-1 strain, 2P (SARS-CoV-2, Wuhan-hu-1, UniProt P0DTC2, 2P mutation at residues 986 and 987 | 2P mutation at residues 986 and 987, biotin (NHS-sulfo-LC-Biotin, EZ-link biotinylation kit))
method-description: BLI
assay-conditions: both partners purified
metric: Kd

Consider the worked cases shown below.
binder	metric	reading
humanized SW186 H2L2 (antibody, V domains shown) VH: QVQLVQSGAEVKKPGSSVKVSCKASGVAFSSYWMNWVRQAPGQGLEWIGQIYPGDGDTNYNGKFKGRVTITADKSTSTAYMELSSLRSEDTAVYFCARGFIATVEETMDYWGQGTLVTVSS VL: DIQMTQSPSSLSASVGDRVTITCRASQDISNYLNWYQQKPGKAPKLLIYYTSRLHSGVPSRFSGSGSGTDFTLTISSLQPEDFATYFCQQSHTLPWTFGGGTKLEIK	Kd	12.6 nM
humanized SW186 H3L1 (antibody, V domains shown) VH: QVQLVQSGAEVKKPGSSVKVSCKASGVAFSSYWMNWVRQAPGQGLEWIGQIYPGDGDTNYNGKFKGRATITADKSTSTAYMELSSLRSEDTAVYFCARGFIATVEETMDYWGQGTLVTVSS VL: DIQMTQSPSSLSASVGDRVTITCRASQDISNYLNWYQQKPGKAPKLLIYYTSRLHSGVPSRFSGSGSGTDFTLTISSLQPEDFATYYCQQSHTLPWTFGGGTKLEIK	Kd	6.69 nM

Please look at the following binder next.
Query block: Form field: reported Kd of humanized SW186 H1L2 (antibody, V domains shown) VH: QVQLVQSGAEVKKPGSSVKVSCKASGVAFSSYWMNWVRQAPGQGLEWMGQIYPGDGDTNYNGKFKGRVTITADKSTSTAYMELSSLRSEDTAVYYCARGFIATVEETMDYWGQGTLVTVSS VL: DIQMTQSPSSLSASVGDRVTITCRASQDISNYLNWYQQKPGKAPKLLIYYTSRLHSGVPSRFSGSGSGTDFTLTISSLQPEDFATYFCQQSHTLPWTFGGGTKLEIK
Result block: 26.2 nM
